B1: library; numbered along this chain (parent)
chain: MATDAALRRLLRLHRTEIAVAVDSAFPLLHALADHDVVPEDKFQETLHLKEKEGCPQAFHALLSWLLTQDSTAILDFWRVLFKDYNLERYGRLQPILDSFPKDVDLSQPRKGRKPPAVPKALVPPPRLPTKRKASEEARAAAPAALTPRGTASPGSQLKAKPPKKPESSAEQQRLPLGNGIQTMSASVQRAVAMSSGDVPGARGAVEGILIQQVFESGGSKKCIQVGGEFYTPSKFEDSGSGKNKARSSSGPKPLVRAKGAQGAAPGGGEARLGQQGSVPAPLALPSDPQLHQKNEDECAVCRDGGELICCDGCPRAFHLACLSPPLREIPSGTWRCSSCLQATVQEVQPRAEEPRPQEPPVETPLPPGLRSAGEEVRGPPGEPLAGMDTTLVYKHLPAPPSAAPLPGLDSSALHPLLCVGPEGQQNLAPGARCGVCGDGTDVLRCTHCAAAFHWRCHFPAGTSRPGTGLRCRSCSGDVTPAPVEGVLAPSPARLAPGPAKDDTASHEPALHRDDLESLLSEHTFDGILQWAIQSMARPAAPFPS

# Variants of: B1
# protocol_details: AIRE transcriptional activation functional score (insulin promoter-GFP; nonsense median 0, synonymous median 1) (normalised score); higher = higher AIRE activity (more reporter activation)
# assay_context: with insulin promoter-GFP reporter in HEK293
The threshold is inclusive: AIRE transcriptional activation functional score of exactly 0.4 counts as 1.0; values below receive 0.0.

Below, 4 variants whose answers are already recorded.
INSERT INTO assay_data (alteration, qualitative_label) VALUES
  ('N295Q', 1.0),
  ('S521K', 0.0),
  ('P109I', 1.0),
  ('K259T', 1.0);

query: Hello, I need to know if A6Y has measured AIRE transcriptional activation functional score not below 0.4. Thanks!
result: 1.0

query: Hello, I need to know if L428H has measured AIRE transcriptional activation functional score not below 0.4. Thanks!
result: 1.0

query: Hello, I need to know if P143K has measured AIRE transcriptional activation functional score not below 0.4. Thanks!
result: 0.0

query: Hello, I need to know if P200G has measured AIRE transcriptional activation functional score not below 0.4. Thanks!
result: 1.0

query: Hello, I need to know if K243F has measured AIRE transcriptional activation functional score not below 0.4. Thanks!
result: 1.0

query: Hello, I need to know if L291D has measured AIRE transcriptional activation functional score not below 0.4. Thanks!
result: 0.0

query: Hello, I need to know if L11C has measured AIRE transcriptional activation functional score not below 0.4. Thanks!
result: 0.0

query: Hello, I need to know if L409I has measured AIRE transcriptional activation functional score not below 0.4. Thanks!
result: 1.0

query: Hello, I need to know if Q69D has measured AIRE transcriptional activation functional score not below 0.4. Thanks!
result: 0.0

query: Hello, I need to know if A170I has measured AIRE transcriptional activation functional score not below 0.4. Thanks!
result: 1.0

query: Hello, I need to know if S474V has measured AIRE transcriptional activation functional score not below 0.4. Thanks!
result: 0.0

query: Hello, I need to know if V192L has measured AIRE transcriptional activation functional score not below 0.4. Thanks!
result: 1.0

query: Hello, I need to know if D515R has measured AIRE transcriptional activation functional score not below 0.4. Thanks!
result: 0.0

query: Hello, I need to know if P233F has measured AIRE transcriptional activation functional score not below 0.4. Thanks!
result: 0.0

query: Hello, I need to know if P27E has measured AIRE transcriptional activation functional score not below 0.4. Thanks!
result: 0.0

query: Hello, I need to know if R8V has measured AIRE transcriptional activation functional score not below 0.4. Thanks!
result: 0.0

query: Hello, I need to know if A300C has measured AIRE transcriptional activation functional score not below 0.4. Thanks!
result: 1.0
